System: Phakopsora pachyrhizi (F129L)
Test: Protective control of soybean rust on soybeans (PHAKPA P6)
Type: in vivo
Conditions: 16 ppm, protective, inoculation six days after spraying, % diseased leaf area
Attribute: PHAKPA (F129L) Disease level (%) P6 at 16 ppm

Measured PHAKPA (F129L) Disease level (%) P6 at 16 ppm for this entry CO/N=C(/C(=O)OC)c1cccc(C)c1CO/N=C(\C)c1cccc(C)c1 on Phakopsora pachyrhizi (F129L): 0%

Measured PHAKPA (F129L) Disease level (%) P6 at 16 ppm for this entry CO/N=C(/C(=O)OC)c1cccc(C)c1CO/N=C(\C)c1ccccc1F on Phakopsora pachyrhizi (F129L): 47%

---

Attribute: % PHAKPA (F129L) Disease level, P6 at 16 ppm
Test system: Phakopsora pachyrhizi (F129L)
Assay: Protective control of soybean rust on soybeans (PHAKPA P6)
Format: in vivo
Conditions: protective P6, 16 ppm, soybean rust F129L
Quick note: give the figure in %, leave out the unit.

These recorded examples may help you get a feel for the data.
CO/N=C(/C(=O)OC)c1cccc(C)c1CO/N=C(\C)c1cccc(OC(F)(F)F)c1 [compound 28]; 0
CNC(=O)/C(=N/OC)c1cccc(C)c1CO/N=C(\C)c1ccccc1C [compound 127]; 62
CNC(=O)/C(=N/OC)c1cccc(C)c1CO/N=C(\C)c1cc(F)cc(F)c1 [compound 84]; 0

The compound listed as CO/N=C(/C(=O)OC)c1cccc(C)c1CO/N=C(\C)c1ccccc1F [Ex. 1] has a reported % PHAKPA (F129L) Disease level, P6 at 16 ppm of 56

---

Tested on: Septoria tritici
Assay: Micro titer plate test against Septoria tritici causing leaf blotch on wheat (SEPTTR)
Assay type: cell-based
Settings: 0.25 ppm, relative growth vs compound-free control (100%), 7 days
Attribute: Fungal growth (%) SEPTTR

CO/N=C(/C(=O)OC)c1cccc(C)c1CO/N=C(/c1cccc(C)c1)C1CC1 [drawing 953]; 89%
CO/N=C(/C(=O)OC)c1cccc(C)c1CO/N=C(\C)c1cccc(C)c1; 0%
CO/N=C(/C(=O)OC)c1cccc(C)c1CO/N=C(\SC)c1cccc(C)c1 [drawing 952]; 61%

Could you now consider this next compound?
The compound listed as CNC(=O)/C(=N/OC)c1cccc(C)c1CO/N=C(\OC)c1cccc(C(F)(F)F)c1 has a reported Fungal growth (%) SEPTTR of 77%

---

System: Phakopsora pachyrhizi (F129L)
Assay: Protective control of soybean rust on soybeans (PHAKPA P6)
Assay type: in vivo
Details: 16 ppm, protective, inoculation six days after spraying, % diseased leaf area
REPORTED_ENDPOINT: PHAKPA (F129L) Disease level (%) P6 at 16 ppm

These recorded examples may help you get a feel for the data.
CO/N=C(/C(=O)OC)c1cccc(C)c1CO/N=C(\C)c1cccc(OC(F)(F)F)c1; 18%
CO/N=C(/C(=O)OC)c1cccc(C)c1CO/N=C(\C)c1cccc(C(F)(F)F)c1; 4%

The compound listed as CO/N=C(/C(=O)OC)c1cccc(C)c1CO/N=C(\C)c1cccc(Cl)c1 has a reported PHAKPA (F129L) Disease level (%) P6 at 16 ppm of 1%
